Biological target: human B2 receptor (Homo sapiens, UniProt P30411)
Construct: expressed in transfected cells; host or cells: CHO cells (membranes)
Sequence (P30411 whole entry): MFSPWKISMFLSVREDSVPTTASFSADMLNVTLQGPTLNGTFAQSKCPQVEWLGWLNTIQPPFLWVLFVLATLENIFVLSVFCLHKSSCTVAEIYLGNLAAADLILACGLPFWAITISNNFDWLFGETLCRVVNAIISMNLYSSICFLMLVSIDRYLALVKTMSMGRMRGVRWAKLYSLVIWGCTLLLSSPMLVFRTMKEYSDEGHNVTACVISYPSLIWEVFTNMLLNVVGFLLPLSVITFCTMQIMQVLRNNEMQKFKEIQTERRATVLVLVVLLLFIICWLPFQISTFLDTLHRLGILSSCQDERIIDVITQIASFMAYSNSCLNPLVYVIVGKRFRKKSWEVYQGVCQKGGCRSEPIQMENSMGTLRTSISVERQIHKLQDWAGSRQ
Assay: competitive binding test on CHO cell membranes expressing the human B2 receptor using [3H]-bradykinin as ligand
Counter-ions that a name gives are not always drawn.
// Ki lookup, one value per entry
quantity: Ki

molecule	result
Cc1cc(-n2cncn2)c2cccc(OCc3c(Cl)ccc(S(=O)(=O)N4CCC[C@H]4C(=O)NCCCN4CCCC4)c3Cl)c2n1 [Example 87, methanesulphonate]	15 nM
Cc1cc(-n2ccnc2)c2cccc(OCc3c(Cl)ccc(S(=O)(=O)N4CCC[C@H]4C(=O)NCC4CCN(CCO)CC4)c3Cl)c2n1	0.034 nM
Cc1cc(-n2ccnc2)c2cccc(OCc3c(Cl)ccc(S(=O)(=O)N4CCC[C@H]4C(=O)NCC4CCN(CCOCCO)CC4)c3Cl)c2n1 [Example 12, tartrate]	0.47 nM
CC(=O)N[C@H]1CCN(S(=O)(=O)c2ccc(Cl)c(COc3cccc4c(-n5ccnc5)cc(C)nc34)c2Cl)C1	8.8 nM
Cc1cc(-n2ccnc2)c2cccc(OCc3c(Cl)ccc(S(=O)(=O)N4CCC[C@H]4C(=O)N(C)CCN(C)CCCCO)c3Cl)c2n1 [Example 103, methanesulphonate]	21 nM
CNCCCNC(=O)[C@@H]1CCCN1S(=O)(=O)c1ccc(Cl)c(COc2cccc3c(-n4ccnc4)cc(C)nc23)c1Cl [Example 123, trifluoroacetate]	8.1 nM
Cc1cc(-n2ccnc2)c2cccc(OCc3c(Cl)ccc(S(=O)(=O)N4CCC[C@H]4C(=O)NCc4ccccn4)c3Cl)c2n1 [Example 89, methanesulphonate]	55 nM
Cc1cc(-n2ccnc2)c2cccc(OCc3c(Cl)ccc(S(=O)(=O)N4CCC[C@H]4C(=O)NCC4CCN(CCCO)CC4)c3Cl)c2n1 [Example 23, tartrate]	0.45 nM
Cc1cc(-n2ccnc2)c2cccc(OCc3c(Cl)ccc(S(=O)(=O)N4CCC[C@H]4C(=O)NCC4CCNCC4)c3Cl)c2n1 [Example 10, ditartrate]	1 nM
Cc1cc(-n2cncn2)c2cccc(OCc3c(Cl)ccc(S(=O)(=O)N4CCC[C@H]4C(=O)NCC4CCN(CCCO)CC4)c3Cl)c2n1 [Example 30, tartrate]	0.73 nM
Cc1cc(-n2ccnc2)c2cccc(OCc3c(Cl)ccc(S(=O)(=O)N4CC[C@@H](O)C4)c3Cl)c2n1 [Example 170, tartrate]	7.8 nM
Cc1cc(-n2ccnc2)c2cccc(OCc3c(Cl)ccc(S(=O)(=O)N4CCC[C@H]4C(=O)NCCCN4CCCC4)c3Cl)c2n1 [Example 77, tartrate]	6.1 nM
Cc1cc(-n2ccnc2)c2cccc(OCc3c(Cl)ccc(S(=O)(=O)N4CCC[C@H]4C(=O)NCC4CCN(Cc5ccccn5)CC4)c3Cl)c2n1 [Example 109, methanesulphonate]	15 nM
Cc1cc(-n2ccnc2)c2cccc(OCc3c(Cl)ccc(S(=O)(=O)N4CCC[C@H]4C(=O)N(C)CCN(C)CCCO)c3Cl)c2n1 [Example 101, methanesulphonate]	50 nM

Values compiled from patent US6479515B1.
